- Tested on: L1 wild-type C. elegans
- applied conditions: Dose 3.13 µM

# compound, C. elegans KCN Survival
data = [
    ("Cc1ccccc1OCCCn1c(C)nc2ccccc21", 0.985),
    ("Cc1nc2ccccc2n1CCOc1ccccc1Cl", 0.985),
    ("Cc1ccc(C(C)C)c(OCC(O)Cn2cnc3ccccc32)c1 (centres unmarked)", 0.981),
    ("Nc1nc2ccccc2n1CCOc1ccc(Br)cc1", 1.110),
    ("Nc1nc2ccccc2n1Cc1ccc(Cl)cc1", 1.051),
    ("Clc1ccc(OCCn2cnc3ccccc32)c(Cl)c1", 1.008),
    ("Cc1ccc(SCCCn2cnc3ccccc32)cc1", 0.707),
    ("Clc1ccc(Cn2cnc3ccccc32)cc1Cl", 0.957),
    ("FC(F)(F)c1cccc(OCCCCn2cnc3ccccc32)c1", 1.026),
    ("Clc1ccc(Cn2cnc3ccccc32)c(Cl)c1", 0.544),
    ("Cc1ccc(SCCCCn2cnc3ccccc32)cc1", 0.876),
    ("Cc1ccc(OCCn2cnc3ccccc32)cc1", 0.844),
    ("CCCn1c(COc2ccc(C)cc2)nc2ccccc21", 0.820),
    ("Cc1nc2ccccc2n1Cc1ccc(Cl)c(Cl)c1", 0.953),
    ("Clc1ccc(SCCCCn2cnc3ccccc32)cc1", 0.917),
    ("Cc1ccc(OCCn2cnc3ccccc32)c(C)c1", 0.998),
    ("CC(C)Oc1cccc(OCCn2cnc3ccccc32)c1", 1.070),
    ("Cc1nc2ccccc2n1CCOc1ccccc1", 1.021),
    ("CCc1cc(OCCn2cnc3ccccc32)ccc1Cl", 1.186),
    ("CCCOc1ccc(Cn2cnc3ccccc32)cc1", 1.007),
]
